test system: Saccharomyces cerevisiae; experiment: protein stability index of tFT-peptide fusion (C-terminal peptide) (PSI (0-1 scale)); higher = more stable (slower turnover); conditions: genetic background: wild type; temperature: 30 C
Label N if protein stability index falls below 0.7; label Y in every other case.

Here's what some known entries look like.
Item sequence | Label
GRRGCSGGLKGL | N
LFSVFSLVLFIF | N
VVLFCPFISSED | Y
SFYVCVPVLWLV | N
GGAGGRRRIGGG | N

### Prompt Item "LIEMVTTRYRLC" with protein stability index of 0.7 or above?
### Response N

### Prompt Item "SPVPLPPPLPSL" with protein stability index of 0.7 or above?
### Response N

### Prompt Item "HHIAYTALSVWS" with protein stability index of 0.7 or above?
### Response N

### Prompt Item "QIVDHCLVWLRG" with protein stability index of 0.7 or above?
### Response N

### Prompt Item "PTDVVCVSGHGS" with protein stability index of 0.7 or above?
### Response Y

---

tested on: Saccharomyces cerevisiae; experiment: protein stability index of tFT-peptide fusion (C-terminal peptide) (PSI (0-1 scale)); higher = more stable (slower turnover); conditions: genetic background: wild type; temperature: 37 C
Label not fulfilled if protein stability index falls below 0.4; label fulfilled in every other case.

Item sequence | Label
WCVRRVRFVMGC | not fulfilled

### Prompt Item "TLWWRQPFWGFG" with protein stability index of 0.4 or above?
### Response fulfilled

### Prompt Item "VGIFKVCALVLR" with protein stability index of 0.4 or above?
### Response fulfilled

### Prompt Item "VFLLLSLSVFFE" with protein stability index of 0.4 or above?
### Response not fulfilled

### Prompt Item "MTLYSFSSALLA" with protein stability index of 0.4 or above?
### Response fulfilled

### Prompt Item "RRIILAGLFLIS" with protein stability index of 0.4 or above?
### Response fulfilled

### Prompt Item "NYFRPWLIFHKC" with protein stability index of 0.4 or above?
### Response fulfilled

---

tested on: Saccharomyces cerevisiae; experiment: protein stability index of tFT-peptide fusion (C-terminal peptide) (PSI (0-1 scale)); higher = more stable (slower turnover); details: genetic background: cdc53-1; temperature: 37 C
Label not satisfied if protein stability index falls below 0.5; label satisfied in every other case.

Here's what some known entries look like.
Item sequence | Label
LVPLSLLLCFFV | satisfied
CKKATILRIKSM | satisfied
RSNLSKSWHRIG | satisfied
LLVRYRRALVLL | not satisfied
FIGVLVYICREG | not satisfied
GLFGFASPPPPS | satisfied
LCSCMWISAIAI | satisfied
VCVAVCFVMCGG | not satisfied
VGGLGWCWVCMA | satisfied
PSIALVRLDVIC | not satisfied

### Prompt Item "RTMLSNRIKSFI" with protein stability index of 0.5 or above?
### Response satisfied

### Prompt Item "GGRSLYAILCAV" with protein stability index of 0.5 or above?
### Response not satisfied

### Prompt Item "SLRSRSLRCRLS" with protein stability index of 0.5 or above?
### Response satisfied

### Prompt Item "RNDCAYHVLQIV" with protein stability index of 0.5 or above?
### Response satisfied

---

Collected protein stability index values appear next to each entry.
test system: Saccharomyces cerevisiae; assay: protein stability index of tFT-peptide fusion (C-terminal peptide) (PSI (0-1 scale)); higher = more stable (slower turnover); details: genetic background: wild type; temperature: 30 C
// no unit, no text: just the number

Recorded protein stability index, per entry:
Item sequence | Tested system | protein stability index
EYIVNVNEYGHD [YOL153C C-terminal 12 aa] | Saccharomyces cerevisiae | 0.678
NSDRLSPMEIYN [SPO14 C-terminal 12 aa] | Saccharomyces cerevisiae | 0.68
SSSLSLESFMKS [SNM1 C-terminal 12 aa] | Saccharomyces cerevisiae | 0.725
LLDAIELYQRHK [HEM4 C-terminal 12 aa] | Saccharomyces cerevisiae | 0.67
NENLSNELQPSL [AME1 C-terminal 12 aa] | Saccharomyces cerevisiae | 0.759

### Prompt Report value only: protein stability index, Saccharomyces cerevisiae, DTCKSVLYCSTS [YMR193C-A C-terminal 12 aa]
### Response 0.65

---

system: Saccharomyces cerevisiae; assay: protein stability index of tFT-peptide fusion (C-terminal peptide) (PSI (0-1 scale)); higher = more stable (slower turnover); conditions: genetic background: wild type; temperature: 30 C
Collected protein stability index values appear next to each entry.
// no unit, no text: just the number

Item sequence | Tested system | protein stability index
RLSSLSSPPPAF | Saccharomyces cerevisiae | 0.693
KDEGIRENKPNH | Saccharomyces cerevisiae | 0.668
ALVGMNVQRRRV | Saccharomyces cerevisiae | 0.705
ASTLPTQPWPKG | Saccharomyces cerevisiae | 0.729

// moving on: another record for protein stability index
### Prompt Look up protein stability index of "RSTLGLAPPQSG" and report it.
### Response 0.67

---

system: Saccharomyces cerevisiae; assay: protein stability index of tFT-peptide fusion (C-terminal peptide) (PSI (0-1 scale)); higher = more stable (slower turnover); conditions: genetic background: das1 deletion; temperature: 30 C
Label f if protein stability index falls below 0.3; label t in every other case.

Here's what some known entries look like.
Item sequence | Label
SLCSSVQVWSVV | t
YVRHDKLILSFC | t
VVDIFLFFLFVC | f
VLGFRPLVFLCF | t
AYCGGRNKCTTE | t
IPGGRPLLVEVR | f
KTDVYPVSFFTC | t
DFVFFLVSVRFR | f
KSRLFCFVYFLL | t
GSVHLTKERHLV | t

### Prompt Item "CFCLFVFFISSC" with protein stability index of 0.3 or above?
### Response f

### Prompt Item "SSLRATLLIRAV" with protein stability index of 0.3 or above?
### Response t

### Prompt Item "YFTNCYRSILTF" with protein stability index of 0.3 or above?
### Response t

### Prompt Item "GLVVVVRLQYSP" with protein stability index of 0.3 or above?
### Response t

### Prompt Item "FLLVGLLIVGCG" with protein stability index of 0.3 or above?
### Response f

### Prompt Item "PSIALVRLDVIC" with protein stability index of 0.3 or above?
### Response t

### Prompt Item "ERNERKYKIKIT" with protein stability index of 0.3 or above?
### Response t

### Prompt Item "IFVFVSFPSCVL" with protein stability index of 0.3 or above?
### Response t

---

Collected protein stability index values appear next to each entry.
system: Saccharomyces cerevisiae; assay: protein stability index of tFT-peptide fusion (C-terminal peptide) (PSI (0-1 scale)); higher = more stable (slower turnover); conditions: genetic background: wild type; temperature: 30 C
// no unit, no text: just the number

Item sequence | protein stability index
SPPPPLTSLVPP | 0.688
GAQSAVLQNPPA | 0.624
GQCQERRKGGCA | 0.577
PLHLPPFRPSPR | 0.676
SFVGPFCLTLSI | 0.596

### Prompt Look up protein stability index of "RFPPWVSSIFAF" and report it.
### Response 0.494

### Prompt Look up protein stability index of "TDTCLQDCLVFV" and report it.
### Response 0.546

### Prompt Look up protein stability index of "YRHYGVARKKLA" and report it.
### Response 0.152

### Prompt Look up protein stability index of "GRDKGNLQSLRR" and report it.
### Response 0.732

### Prompt Look up protein stability index of "KIKKKKEQTKKK" and report it.
### Response 0.752

---

system: Saccharomyces cerevisiae; assay: protein stability index of tFT-peptide fusion (C-terminal peptide) (PSI (0-1 scale)); higher = more stable (slower turnover); conditions: genetic background: cdc34-1; temperature: 37 C
Label 0 (no) if protein stability index falls below 0.4; label 1 (yes) in every other case.

Here's what some known entries look like.
Item sequence | Label
SWELKWVYARVV | 0 (no)
FPCRNFMVFFCF | 1 (yes)
ESCFGMAIFCVT | 1 (yes)
NGLVCVFILSWY | 0 (no)
NNQIQKKMYQTN | 1 (yes)

### Prompt Item "RGKVVRGLLFCA" with protein stability index of 0.4 or above?
### Response 1 (yes)

---

Collected protein stability index values appear next to each entry.
test system: Saccharomyces cerevisiae; experiment: protein stability index of tFT-peptide fusion (C-terminal peptide) (PSI (0-1 scale)); higher = more stable (slower turnover); details: genetic background: wild type; temperature: 30 C
// no unit, no text: just the number

Recorded protein stability index, per entry:
Item sequence | Observed property | Result value
ISTAPEQMMFLP [MSG5 C-terminal 12 aa] | protein stability index | 0.716
GGIRKISGSIKK [CDC14 C-terminal 12 aa] | protein stability index | 0.667
LTTISLYLMLKL [YGL262W C-terminal 12 aa] | protein stability index | 0.351

### Prompt Look up protein stability index of SEGLQFLQREKK [MSE1 C-terminal 12 aa] and report it.
### Response 0.681

### Prompt Look up protein stability index of PLKFPLPLKPPL [YHL034W-A C-terminal 12 aa] and report it.
### Response 0.699

### Prompt Look up protein stability index of TSAFNKLHIVEE [YAK1 C-terminal 12 aa] and report it.
### Response 0.67

### Prompt Look up protein stability index of EMEKNKLKRKRN [YNG2 C-terminal 12 aa] and report it.
### Response 0.699

### Prompt Look up protein stability index of ANLFSSKKKAKL [RSB1 C-terminal 12 aa] and report it.
### Response 0.822

### Prompt Look up protein stability index of AVHLQAIDLLNC [PIR1 C-terminal 12 aa] and report it.
### Response 0.672

### Prompt Look up protein stability index of AAKYLNSLSVNQ [PTP1 C-terminal 12 aa] and report it.
### Response 0.686

### Prompt Look up protein stability index of DLASFIKKSLSS [TML25 C-terminal 12 aa] and report it.
### Response 0.734

### Prompt Look up protein stability index of QIVGRYVVDTSK [ADH1 C-terminal 12 aa] and report it.
### Response 0.683
